Activity calls are given as the source filed them.
Consider molecules characterized by their IC50 with Estrogen receptor beta (Homo sapiens).
Sequence (Q92731 whole entry): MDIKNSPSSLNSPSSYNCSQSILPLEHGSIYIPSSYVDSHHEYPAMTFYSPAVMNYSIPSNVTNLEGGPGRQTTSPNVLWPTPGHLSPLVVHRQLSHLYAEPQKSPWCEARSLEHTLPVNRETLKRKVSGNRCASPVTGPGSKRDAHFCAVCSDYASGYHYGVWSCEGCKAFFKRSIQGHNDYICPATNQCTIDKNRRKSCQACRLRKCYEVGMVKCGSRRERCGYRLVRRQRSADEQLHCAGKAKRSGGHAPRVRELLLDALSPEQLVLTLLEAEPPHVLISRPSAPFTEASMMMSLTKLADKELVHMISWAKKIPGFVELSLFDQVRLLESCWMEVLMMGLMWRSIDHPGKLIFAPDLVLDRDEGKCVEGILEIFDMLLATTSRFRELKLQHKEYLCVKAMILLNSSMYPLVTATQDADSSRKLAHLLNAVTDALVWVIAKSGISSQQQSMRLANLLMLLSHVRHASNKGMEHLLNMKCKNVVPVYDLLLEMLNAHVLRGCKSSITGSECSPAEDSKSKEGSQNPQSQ
MEASURED_METRIC: IC50

> print(dat)
                                   molecule  measured.metric                result
1              COc1ccc(Cl)cc1NC(=O)c1ocnc1C             IC50      8.77 µM (active)
2  CN(CC(O)COc1ccc(S(=O)(=O)N2CCOCC2)cc1)C1CCCCC1 (centres undefined)             IC50  > 50 µM (not active)
3  O=C(OCC(=O)N1CCN(C(=O)c2ccco2)CC1)c1cc(-c2ccco2)nc2ccccc12             IC50    < 1.56 µM (active)
4  CCOC(=O)c1c(C)oc2c1c(C(c1cccnc1)N1CCCCC1)c(O)c1ccccc12 (centres undefined)             IC50  > 50 µM (not active)

---

target: Luciferin 4-monooxygenase (Photinus pyralis, UniProt P08659); test: firefly luciferase enzyme inhibitors, dose response, biochemical, luminescence (AID 1891)
Sequence (P08659 whole entry): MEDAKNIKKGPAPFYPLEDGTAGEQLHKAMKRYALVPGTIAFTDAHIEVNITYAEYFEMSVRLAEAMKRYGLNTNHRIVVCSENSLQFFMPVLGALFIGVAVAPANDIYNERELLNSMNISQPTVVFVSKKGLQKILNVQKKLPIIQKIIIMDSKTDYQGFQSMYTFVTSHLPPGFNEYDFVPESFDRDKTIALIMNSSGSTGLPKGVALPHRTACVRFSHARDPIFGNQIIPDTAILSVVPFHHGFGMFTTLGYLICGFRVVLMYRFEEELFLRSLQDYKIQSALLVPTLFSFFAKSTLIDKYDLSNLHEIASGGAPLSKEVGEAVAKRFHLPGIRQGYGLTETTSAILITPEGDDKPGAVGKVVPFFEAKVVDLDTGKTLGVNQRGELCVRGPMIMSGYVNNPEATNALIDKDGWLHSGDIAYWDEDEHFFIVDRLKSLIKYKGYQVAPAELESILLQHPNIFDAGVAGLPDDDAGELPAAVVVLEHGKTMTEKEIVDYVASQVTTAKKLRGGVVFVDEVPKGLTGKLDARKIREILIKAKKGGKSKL
Activity calls are given as the source filed them.
MEASURED_METRIC: EC50

> print(dat)
                                   compound  measured.metric                 result
1         COC(=O)c1sc(NC(=O)c2ccc(C)o2)nc1C             EC50        5.6 µM (active)
2  CCN(CC(=O)Nc1sc2c(c1C#N)CCCC2)CC(=O)NC1CCS(=O)(=O)C1 (stereo unspecified)             EC50  > 112 µM (not active)
3   O=C(CCCn1cc([N+](=O)[O-])cn1)NC1CCCCCC1             EC50  > 112 µM (not active)
4     COc1ccc(-c2cc3c(nn2)-c2ccccc2C3=O)cc1             EC50      0.384 µM (active)
5             CCCCn1c2c(c(=N)c3ccccc31)CCC2             EC50  > 112 µM (not active)
6              O=c1[nH]c2c(s1)C=Nc1ccccc1N2             EC50  > 112 µM (not active)

---

biological target: UniProt:P9WMR3; assay: DnaB intein splicing inhibitors, dose response, biochemical, cell-free fluorescence (AID 449749); format: functional
Sequence (P9WMR3 1-399, added parts left off): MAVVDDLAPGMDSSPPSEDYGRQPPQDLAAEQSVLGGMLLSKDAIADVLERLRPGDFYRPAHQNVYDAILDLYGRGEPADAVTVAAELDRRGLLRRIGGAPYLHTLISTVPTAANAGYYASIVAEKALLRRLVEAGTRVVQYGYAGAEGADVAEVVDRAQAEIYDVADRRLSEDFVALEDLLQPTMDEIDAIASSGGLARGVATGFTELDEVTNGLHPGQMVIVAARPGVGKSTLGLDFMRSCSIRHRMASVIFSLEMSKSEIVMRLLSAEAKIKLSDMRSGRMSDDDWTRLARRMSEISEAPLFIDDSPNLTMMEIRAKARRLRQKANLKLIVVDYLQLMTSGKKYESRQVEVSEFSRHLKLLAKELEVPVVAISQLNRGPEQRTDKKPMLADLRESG
Activity calls are given as the source filed them.
Labels: 1 = active, -1 = inactive

> print(dat)
                                    compound  category.label
 1  COc1cc(/C=C2/C(=O)N(c3cccc(Br)c3)N=C2C)cc(OC)c1O               1
 2  CCCNC1=C(N(C(C)=O)c2cccc(F)c2)C(=O)c2ccccc2C1=O               1
 3  CS(=O)(=O)C1=NN2C(=N)/C(=C\c3ccc(OC(=O)c4ccco4)cc3)C(=O)N=C2S1              -1
 4  CCOc1cc(C2C(C#N)=C(N)Oc3[nH]nc(C)c32)ccc1OCCN1CCOCC1 (stereo not given)               1
 5       COc1ccc(C(=O)Nc2ccc(O)c3ccccc23)cc1               1
 6  CC(=O)Nc1ccc(S(=O)(=O)[N-]C2=C(n3cc[n+](-c4ccccn4)c3)C(=O)c3ccccc3C2=O)cc1               1
 7  Oc1ccc(/C(Cc2ccc3ccccc3n2)=N\Nc2ccccc2)c(O)c1               1
 8         O=C1NC(=S)S/C1=C\c1nc2ccccc2[nH]1              -1
 9  CCc1cc2c3c(c1)C1(C(=O)N3C(C)(C)C=C2C)C(C#N)=C(N)Oc2nc(O)nc(O)c21 (stereo not given)               1
10  O=Cc1s/c(=N\S(=O)(=O)c2ccccc2)n(CCCCl)c1Cl               1
11  CN(CCO)c1cc(Sc2nc3ccccc3s2)c2nonc2c1[N+](=O)[O-]               1
12  CCOc1ccc(N2C(=O)/C(=C\c3ccc(O)c(OC)c3)S(=O)(=O)C2c2cccc([N+](=O)[O-])c2)cc1 (stereo not given)               1
13  CCOC(=O)c1c(N=C(S)N2CCOCC2)sc2c1CCN(C(=O)OCC)C2               1
14  CCOc1ccc(C(c2c(C)n[nH]c2O)c2c(C)n[nH]c2O)cc1OC               1
15  COc1cccc(C(C[N+](=O)[O-])c2c(C)[nH]n(-c3ccccc3)c2=O)c1 (stereo not given)               1
16  CN1CCc2nc(SCC(=O)Nc3ccc(F)cc3)c(C#N)cc2C1              -1
17  COc1cccc(N/C([S-])=C(/C(=O)c2ccc(C)c([N+](=O)[O-])c2)[n+]2ccccc2)c1               1
18     CCOC(=O)c1cnc2ccc(C)cc2c1Sc1ccc(F)cc1               1
19  CCOc1c(Br)cc(/C=C2\C(=O)N(CCC#N)N=C2C)cc1OC               1
20  O=C(NC1=C(NC2CCS(=O)(=O)C2)C(=O)c2ccccc2C1=O)c1ccccc1 (stereo not given)               1
